The measurements presented in this section are drawn from ChEMBL document CHEMBL1201862.

Tested on: OVCAR-4
Test: NCI tumour cell line growth inhibition, 48 h
Calls of active or inactive are those of the source. No stated cut-off is given here; in the data, active = GI50 up to about 1.1 µM and inactive = higher.
Result category, one only: active, inactive

Consider the worked cases shown below.
[
  {
    "Compound": "CC12CCC(Br)C(C)(C)C1CC=C1C(=O)OCC1O2 (stereo unspecified)",
    "Study System": "OVCAR-4",
    "Group Label": "inactive"
  },
  {
    "Compound": "O=C(O)c1ccccc1C(=O)Nn1cnnc1",
    "Study System": "OVCAR-4",
    "Group Label": "inactive"
  },
  {
    "Compound": "CC(=O)OC(CCC1(C)OC1COc1ccc(CCNC(=O)C=C(C)C)cc1)C(C)(C)OC(C)=O (stereo unspecified)",
    "Study System": "OVCAR-4",
    "Group Label": "inactive"
  },
  {
    "Compound": "O=[N+]([O-])c1cc2c(c([N+](=O)[O-])c1)NCc1ccccc1O2",
    "Study System": "OVCAR-4",
    "Group Label": "inactive"
  }
]

(Q) Status in this test for O=C(O)CCCCCNC(=O)CCC(CN(CC(=O)OCc1ccccc1)CC(=O)OCc1ccccc1)N(CC(=O)OCc1ccccc1)CC(=O)OCc1ccccc1 (stereo unspecified) ?
(A) inactive

(Q) And the next one, O=[N+]([O-])[C@@H]1C2C=CC(C2)[C@H]1Cl (stereo partly specified) ?
(A) inactive

(Q) Input `Cc1cccc2c1C(=O)OC2(c1cccc2ccccc12)c1cccc2ccccc12`
(A) inactive

(Q) Now give it for `CN(C)CC(CN(C)C)c1ccccn1` too.
(A) inactive

(Q) Moving on to `CC(C)=CCC/C(C)=C/Cc1c(O)ccc2c1[nH]c1cc(O)c(C)cc12`
(A) inactive

(Q) What do we get for `Clc1cccc(-c2sc(-c3ccsc3)cc2Cc2ccsc2)c1` ?
(A) inactive

(Q) Same for `CCc1nc(N)nc(N)c1-c1ccc([N+](C)(C)C)cc1`
(A) inactive

(Q) What do you get for CCOC(=O)c1cc(C2CCN(Cc3ccccc3)C2=O)c(C(=O)/C=C(/C)N)[nH]1 (stereo unspecified) ?
(A) inactive

(Q) Now the same for CCOC(=O)c1c(-c2ccc(O)c(OC)c2)c(C#N)c(=S)n(C2OC(CO)C(O)C(O)C2O)c1-c1ccccc1 (stereo unspecified)
(A) inactive

(Q) Check `CC(=O)OCc1cc2c(s1)C(=O)c1sccc1C2=O` too.
(A) active

(Q) # repeat for `Cc1c(C(=O)NNc2ccccc2)n2c(S)nnc2c2ccccc12`
(A) inactive

---

Tested on: DMS-273
Assay: NCI tumour cell line growth inhibition, 48 h
Active and inactive are the calls of the source. No stated cut-off is given here; in the data, active = GI50 up to about 1.1 µM and inactive = higher.
compounds and their reported GI50

Some solved cases for reference:
[
  {
    "Compound": "COC(=O)C1=C(C)N(NC(=O)OC(C)(C)C)C(=O)C1=P(c1ccccc1)(c1ccccc1)c1ccccc1",
    "GI50": "35.2 µM (inactive)"
  },
  {
    "Compound": "CC1=C(O)C(=O)C2C(=O)C1C1Cc3ccccc3C21 (centres undefined)",
    "GI50": "> 100 µM (inactive)"
  }
]

(Q) Query (compound): O=C1OC(CC(=O)c2ccc(Cl)c(Cl)c2)C(Cl)=C1Cl (centres undefined) ; field requested: GI50
(A) > 100 µM (inactive)

(Q) Queued: CC(=O)NC1COC(COC(=O)CCCCCCCCCCNC(=O)c2ccc([N+](=O)[O-])c3c(=O)c4ccccc4[nH]c23)C(O)C1OC(C)C(=O)NC(C(=O)NC(CCC(N)=O)C(=O)OCc1ccccc1)C(C)C (centres undefined)
(A) 8.69 µM (inactive)

---

Tested on: HT-29
Test: NCI tumour cell line growth inhibition, 48 h
Active and inactive are the calls of the source. Rule as the data show it: active = GI50 up to about 1.1 µM and inactive = higher.
API: response.call in class 1 (active), class 0 (inactive)

[
  {
    "Compound": "CC(NC(=O)C(C)C(=O)NCc1ccc(C(F)(F)F)cc1)C(N)=O (stereo not given)",
    "Group Label": "class 0"
  }
]

(Q) Recorded test outcome, item `Cc1cc(NC(=O)C(=O)Cc2nc3ccccc3s2)ccc1Cl`
(A) class 0

(Q) `O=c1c2ccccc2sc2nc(O)nn12` ?
(A) class 0

(Q) What would you report for CC12CCC(Br)C(C)(C)C1CC=C1C(=O)OCC1O2 (stereo not given) ?
(A) class 0

(Q) Input CC(=O)[C@@]1(C)CC2(CCN(C)CC2)OC1C (stereo not given in full)
(A) class 0

(Q) Then `CCN(CC)C(=O)C/C(C)=N/NC(=O)c1ccncc1` ?
(A) class 0

---

Test system: UACC-257
Assay: NCI tumour cell line growth inhibition, 48 h
Activity calls are given as the source filed them. Rule as the data show it: active = GI50 up to about 1.1 µM and inactive = higher.
Write down the outcome that applies. Available outcomes: yes for active, no for inactive

(Q) Look up the recorded call for `Cc1ccc(C)c(C(=N)c2ccccc2Cc2ccccc2)c1` in this test.
(A) no

(Q) Also CN(C)CCN1CCc2c([nH]c3ccccc23)C1c1cccnc1 (stereo not drawn) ?
(A) no

(Q) Moving on to the next molecule: `O=C1/C(=N/CCc2cc(Br)c(O)c(Br)c2)C=C(O)c2cccnc21`
(A) no

(Q) Subsequent entry: N#Cc1ccccc1NC(=O)C(O)C(O)C(O)C(O)C=O (stereo not drawn)
(A) no

(Q) Another molecule to look at: `c1cc(C[S+]2CCCC2)ccc1C[S+]1CCCC1`
(A) no

(Q) Please answer likewise for `O=C(CSc1nc(O)nc2[nH]cnc12)Nc1ccccc1`
(A) no

---

Tested on: HCC 2998
Assay: NCI tumour cell line growth inhibition, 48 h
Activity calls are given as the source filed them. Rule as the data show it: active = GI50 up to about 1.1 µM and inactive = higher.
Please answer using one outcome listed in active, inactive

Please review the entries below; each comes with its answer.
[
  {
    "Compound": "CC1CCC2[C@@H](C)COC3O[C@]4(C)CCC1C32OO4 (stereo not given in full)",
    "Group Label": "inactive"
  },
  {
    "Compound": "CC(C)Cn1cnc2c(Sc3c([N+](=O)[O-])ncn3C)nc(N)nc21",
    "Group Label": "inactive"
  },
  {
    "Compound": "COc1ccc2[nH]c3c(C)c4cc[n+](C)cc4c(C)c3c2c1",
    "Group Label": "inactive"
  },
  {
    "Compound": "COCC1OC(S(=O)(=O)c2ccccc2)C(O)C(OC)C1OC (stereo not given)",
    "Group Label": "inactive"
  },
  {
    "Compound": "COC(=O)C1=C(C)N2[C@H](C(=O)O)CO[C@@]2(C)[C@H](C(=O)OC)[C@H]1c1cccc([N+](=O)[O-])c1",
    "Group Label": "inactive"
  },
  {
    "Compound": "CC(=O)OCc1cc2c(s1)C(=O)c1sccc1C2=O",
    "Group Label": "inactive"
  }
]

(Q) Identify the outcome logged in this assay for the compound shown: CCOC(=O)C12CC1(C(=O)OCC)C1CCC2C1 (stereo not given)
(A) inactive

(Q) Same read-out for `C/C=C/CP(=O)(c1ccccc1)c1ccccc1` ?
(A) inactive

(Q) Try this compound next: `O=C1OCC/C1=C/c1ccc(/N=N/c2c(O)ccc3ccccc23)cc1`
(A) inactive

(Q) Param item: O=NN(CCCl)C(=O)NC1CCC(CC2CCC(NC(=O)N(CCCl)N=O)CC2)CC1 (stereo not given)
(A) inactive

(Q) What about `Nc1cc2c(cc1[N+](=O)[O-])[nH]c1c(-c3ccccc3)nccc12` ?
(A) inactive

---

Test system: UACC-257
Test: NCI tumour cell line growth inhibition, 48 h
The source made the active and inactive calls. No stated cut-off is given here; in the data, active = GI50 up to about 1.1 µM and inactive = higher.
Parameter GI50: see the listing below.

Known results for compounds:
[
  {
    "Compound": "Cc1cccc(C)c1NC(=O)CCCC(=O)C(C#N)c1ccccc1 (stereo not given)",
    "Measure": "GI50",
    "Observed Measurement": "> 100 µM (inactive)"
  },
  {
    "Compound": "CCOC1=C2C(=O)OC(=O)C2C2CCCCC2=C1 (stereo not given)",
    "Measure": "GI50",
    "Observed Measurement": "> 100 µM (inactive)"
  },
  {
    "Compound": "CN(C)CCN(c1ccccn1)c1ccccn1",
    "Measure": "GI50",
    "Observed Measurement": "> 100 µM (inactive)"
  },
  {
    "Compound": "O=C1CSC2(CC(/C=C/c3ccccc3Br)=NN2c2cccc(S(=O)(=O)O)c2)N1c1nc2ccccc2s1 (stereo not given)",
    "Measure": "GI50",
    "Observed Measurement": "> 100 µM (inactive)"
  },
  {
    "Compound": "COC1/C=C/C(C)C(C(C)C(OC)C(C)CCC(=O)C(C)C(C/C=C/N(C)C=O)OC)OC(=O)/C=C/C=C(\\C)CC(OC)C(OC)C2=CC(=O)O[C@@H](C(C)C(OC)CC(OC)/C=C/C(C)C(O)C1)[C@H]2O (stereo not given in full)",
    "Measure": "GI50",
    "Observed Measurement": "0.13 µM (active)"
  },
  {
    "Compound": "O=C(CCc1cc(O)cc(O)c1)NCCc1cc(O)cc(O)c1",
    "Measure": "GI50",
    "Observed Measurement": "> 100 µM (inactive)"
  }
]

(Q) API: value(readout= GI50, system= UACC-257, query= `O=C(Nc1nc(C23CC4CC(CC(C4)C2)C3)cs1)c1cc2ccc(O)cc2oc1=O` )
(A) 15.6 µM (inactive)

(Q) Would you kindly repeat that for `N=C(N)N/N=C(\c1ccc(Cl)cc1)C1CC1` ?
(A) 14.5 µM (inactive)

(Q) Would you mind doing CN1C/C(=C\c2cccs2)C2=NC(=S)NC(c3cccs3)C2C1 (stereo not given) as well?
(A) 36.6 µM (inactive)

(Q) Follow-up item: `C[n+]1c2ccccc2c(C(=O)Nc2ccc(S(=O)(=O)N=C(N)N)cc2)c2ccccc21`
(A) > 100 µM (inactive)
